# key: entry, value: Emax
SYSTEM_TESTED: OR1C1 (Homo sapiens)
Construct: Lucy (cleavable signal peptide) (N); FLAG (N); Rho (first 20 aa of bovine rhodopsin) (N); expressed in transfected cells
Sequence (Q15619 whole entry): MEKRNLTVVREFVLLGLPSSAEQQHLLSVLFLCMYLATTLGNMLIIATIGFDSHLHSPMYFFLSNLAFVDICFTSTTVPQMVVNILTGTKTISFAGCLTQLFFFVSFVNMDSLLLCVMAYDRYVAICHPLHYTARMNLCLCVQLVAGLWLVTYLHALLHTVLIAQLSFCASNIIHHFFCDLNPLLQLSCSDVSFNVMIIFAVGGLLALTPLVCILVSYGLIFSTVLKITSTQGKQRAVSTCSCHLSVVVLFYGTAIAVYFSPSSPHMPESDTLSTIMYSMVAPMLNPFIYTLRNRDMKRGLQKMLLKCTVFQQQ
RUN_DESCRIPTION: OR1C1 cell-based cAMP HTRF assay
MEASUREMENT_PARAMETERS: dose-response; 100% = full agonist; read-out: OR1C1 % Efficacy
MEASURED_METRIC: Emax (%)

1. C=CC(C)(O)CCC=C(C)C (stereo not shown)	100
2. CCC(C)(O)CCCC(C)C (stereo not shown)	79
3. C=CC(C)(O)CCC=C(C)CC (stereo not shown)	99
4. C=CC(C)(O)CCCC(C)C (stereo not shown) [Dihydrolinalool, 3,7-dimethyloct-1-en-3-ol]	95
